Reference for the values: patent US20250019439A1

target: T1, ADI-26916 IgG; experiment: SPR Carterra avidity, yeast anti-ID
T1 construct: anti-CD3 IgG
T1 sequence (VH, as listed by the source, chain 1 of 2): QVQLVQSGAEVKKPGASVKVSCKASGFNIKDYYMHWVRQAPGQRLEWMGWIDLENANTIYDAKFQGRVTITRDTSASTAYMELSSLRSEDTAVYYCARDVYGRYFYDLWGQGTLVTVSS
T1 sequence (VL, as listed by the source, chain 2 of 2): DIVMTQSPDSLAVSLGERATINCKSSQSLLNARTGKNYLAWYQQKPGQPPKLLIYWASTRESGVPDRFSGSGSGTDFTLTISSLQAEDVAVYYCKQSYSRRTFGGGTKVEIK
I'd be grateful if you could share measured Kd for these entries.
Numbers only, in nM.

Worked examples, 4 binders total:
| BINDER | Kd [nM] |
| --- | --- |
| ADI-34138 (antibody, V domains shown, anti-ID IgG) VH: QVQLVQSGAEVKKPGSSVKVSCKASGGTFSSYAISWVRQAPGQGLEWMGGIIPIFGTANYAQKFQGRVTITADESTSTAYMELSSLRSEDTAVYYCARGAPNYYGSGGYDDGWFDPWGQGTLVTVSS VL: EIVMTQSPGTLSLSPGERATLSCRASQSVSSSYLAWYQQKPGQAPRLLIYGASNRATGIPDRFSGSGSGTDFTLTISRLEPEDFAVYYCQQAHTALWTFGGGTKVEIK | 64 |
| ADI-30242 (antibody, V domains shown, anti-ID IgG) VH: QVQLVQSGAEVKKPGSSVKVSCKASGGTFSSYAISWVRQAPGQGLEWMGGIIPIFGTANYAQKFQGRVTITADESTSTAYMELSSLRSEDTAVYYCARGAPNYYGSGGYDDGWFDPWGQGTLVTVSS VL: EIVLTQSPGTLSLSPGERATLSCRASQSVSSSYLAWYQQKPGQAPRLLIYGASSRATGIPDRFSGSGSGTDFTLTISRLEPEDFAVYYCQQFGRDPTFGGGTKVEIK | 35 |
| ADI-34135 (antibody, V domains shown, anti-ID IgG) VH: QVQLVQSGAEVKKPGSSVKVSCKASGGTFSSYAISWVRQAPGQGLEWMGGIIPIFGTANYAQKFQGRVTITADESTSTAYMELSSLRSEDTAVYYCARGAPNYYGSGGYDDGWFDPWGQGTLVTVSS VL: EIVMTQSPGTLSLSPGERATLSCRASQSVSSSYLAWYQQKPGQAPRLLIYGASSRATGIPDRFSGSGSGTDFTLTISRLEPEDFAVYYCQQFGRYPTFGGGTKVEIK | 0.14 |
| ADI-34137 (antibody, V domains shown, anti-ID IgG) VH: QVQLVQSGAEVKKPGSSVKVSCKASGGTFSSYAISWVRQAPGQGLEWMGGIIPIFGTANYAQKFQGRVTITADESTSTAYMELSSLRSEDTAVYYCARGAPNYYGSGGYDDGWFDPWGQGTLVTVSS VL: EIVLTQSPGTLSLSPGERATLSCRASQSVSSSYLAWYQQKPGQAPRLLIYGASSRATGIPDRFSGSGSGTDFTLTISRLEPEDFAVYYCQQFGRFPTFGGGTKVEIK | 0.31 |

Now look at this entry.
QUERY: Need Kd, item ADI-34132 (antibody, V domains shown, anti-ID IgG) VH: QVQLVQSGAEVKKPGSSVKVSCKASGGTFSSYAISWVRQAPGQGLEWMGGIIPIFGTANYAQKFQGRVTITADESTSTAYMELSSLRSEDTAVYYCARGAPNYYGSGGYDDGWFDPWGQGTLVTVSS VL: DIQLTQSPSSLSASVGDRVTITCRASQSISSYLNWYQQKPGKAPKLLIYAASNLQSGVPSRFSGSGSGTDFTLTISSLQPEDFATYYCQQTLHTPITFGGGTKVEIK
RESULT: 0.6
